The values you see were collected from patent US8592403B2.

# inhibition at 3 µM values compiled below
Target Or System: CYP3A4 (Homo sapiens)
Construct: utilizes human liver microsomes together with isoform-specific clinical drug probes; from tissue; host or cells: human liver microsomes
Sequence (P08684 whole entry, canonical isoform): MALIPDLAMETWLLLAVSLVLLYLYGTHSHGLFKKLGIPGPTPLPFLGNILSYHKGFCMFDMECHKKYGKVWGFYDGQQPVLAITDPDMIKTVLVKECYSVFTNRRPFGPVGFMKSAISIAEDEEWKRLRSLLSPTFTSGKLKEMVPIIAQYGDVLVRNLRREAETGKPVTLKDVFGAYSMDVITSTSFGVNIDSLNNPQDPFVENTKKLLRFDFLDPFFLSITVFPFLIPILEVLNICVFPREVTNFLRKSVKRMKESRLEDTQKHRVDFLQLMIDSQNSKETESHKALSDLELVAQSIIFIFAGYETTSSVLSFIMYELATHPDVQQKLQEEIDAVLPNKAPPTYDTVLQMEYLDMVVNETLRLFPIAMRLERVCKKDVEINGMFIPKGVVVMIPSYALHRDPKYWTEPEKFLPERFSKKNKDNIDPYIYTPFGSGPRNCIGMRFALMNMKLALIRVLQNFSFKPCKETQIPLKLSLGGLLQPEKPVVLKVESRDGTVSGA
Test Details: High density DDI 3 μM cocktail screen in human liver microsomes, midazolam probe
Type: in vitro ADME
Study Conditions: human, liver microsomes, probe midazolam, read-out: % inhibition 3A4 @ 3 μM
Method: High Density Drug-Drug Interactions (DDI) 3 μM Cocktail Screen […] The substrate cocktail approach for P450 DDI utilizes human liver microsomes together with isoform-specific clinical drug probes and permits the simultaneous measurement of the inhibition of P450 1A2, 2C9, 2D6 & 3A4 activities in a single incubation. […] This method has been thoroughly tested and evaluated using standard compounds. […]
Write the value in % as a bare number.

Illustrative cases are given below, each with its answer.
[
  {
    "Compound": "N#Cc1ccc(N2C[C@@H](C(=O)N3CCC[C@@H](c4ccc(Cl)cc4)N(C(=O)CC(F)(F)F)CC3)[C@H](c3ccc(F)cc3F)C2)nn1",
    "Measured Attribute": "inhibition at 3 µM",
    "Numeric Readout": 46.5
  },
  {
    "Compound": "CC(C)(C)N1C[C@@H](C(=O)N2CCC[C@@H](c3ccc(Cl)cc3)N(C(=O)CC(F)(F)F)CC2)[C@H](c2ccc(F)cc2F)C1",
    "Measured Attribute": "inhibition at 3 µM",
    "Numeric Readout": 34
  },
  {
    "Compound": "COc1ccc([C@@H]2CN(c3ccc(=O)n(C)n3)C[C@H]2C(=O)N2CCC[C@@H](c3ccc(Cl)cc3)N(C(=O)CC(F)(F)F)CC2)c(F)c1",
    "Measured Attribute": "inhibition at 3 µM",
    "Numeric Readout": 36.8
  }
]

Input: Quick one: inhibition at 3 µM of COC(=O)N1CCN(C(=O)C2CN(c3ccc(C#N)nn3)C[C@H]2c2ccc(OC)cc2F)CCC[C@@H]1c1ccc(Cl)cc1 (stereo partly drawn) ?
Output: 21.5

Input: Another compound to check: CCC(=O)N1CCN(C(=O)[C@@H]2CN(C(C)(C)C)C[C@H]2c2ccc(Cl)cn2)CCC[C@H]1c1ccc(Cl)cc1
Output: 41

Input: Another compound to check: CCOC(=O)N1CCN(C(=O)[C@@H]2CN(C(C)(C)C)C[C@H]2c2ccc(F)cc2F)CCC[C@H]1c1ccc(Cl)cc1
Output: 0

* * *

Target Or System: MC4 receptor (Homo sapiens)
Sequence (P32245 whole entry): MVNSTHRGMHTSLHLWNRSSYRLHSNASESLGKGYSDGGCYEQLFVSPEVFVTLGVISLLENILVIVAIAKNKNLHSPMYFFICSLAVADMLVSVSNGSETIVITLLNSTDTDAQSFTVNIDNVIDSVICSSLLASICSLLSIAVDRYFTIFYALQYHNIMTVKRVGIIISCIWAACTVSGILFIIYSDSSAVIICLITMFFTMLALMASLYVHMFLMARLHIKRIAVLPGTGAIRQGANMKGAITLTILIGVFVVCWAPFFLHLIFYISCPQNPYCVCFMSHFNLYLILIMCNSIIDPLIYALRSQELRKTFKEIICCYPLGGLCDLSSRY
Test Details: MC4 EC50 functional potency (protocol E of US2005/0176772 / WO 2005/077935)
# EC50 values compiled below
Write the value in nM as a bare number.

Illustrative cases are given below, each with its answer.
[
  {
    "Molecule": "CS(=O)(=O)N1CCN(C(=O)[C@@H]2CN(c3ccc(=O)[nH]n3)C[C@H]2c2ccc(F)cc2F)CCCC1c1ccc(Cl)cc1 (mixture of isomers)",
    "Output Unit": "nM",
    "Numeric Readout": 17.1
  },
  {
    "Molecule": "CC(C)(C)N1C[C@@H](C(=O)N2CCC(c3ccc(Cl)cc3)N(S(C)(=O)=O)CC2)[C@H](c2ccc(F)cc2F)C1 (mixture of isomers)",
    "Output Unit": "nM",
    "Numeric Readout": 404
  },
  {
    "Molecule": "CCC(=O)N1CCN(C(=O)[C@@H]2CN(C(C)(C)C)C[C@H]2c2ccc(F)cc2F)CCC[C@H]1c1ccc(Cl)cc1",
    "Output Unit": "nM",
    "Numeric Readout": 17.3
  },
  {
    "Molecule": "CS(=O)(=O)N1CCN(C(=O)[C@@H]2CN(c3ccc(C#N)nn3)C[C@H]2c2ccc(Cl)cn2)CCC[C@H]1c1ccc(Cl)cc1",
    "Output Unit": "nM",
    "Numeric Readout": 12
  },
  {
    "Molecule": "CS(=O)(=O)N1CCN(C(=O)[C@@H]2CN(c3ccc(C#N)cn3)C[C@H]2c2ccc(F)cc2F)CCCC1c1ccccc1 (single isomer, unassigned) [Example 39]",
    "Output Unit": "nM",
    "Numeric Readout": 38
  }
]

Input: Quick one: EC50 of COc1ccc([C@@H]2CN(c3cccnn3)C[C@H]2C(=O)N2CCC(c3ccc(Cl)cc3)N(C(C)=O)CC2)c(F)c1 (mixture of isomers) ?
Output: 14.5
